Collected N-term FLAG values appear next to each entry.
TARGET_OR_TEST_SYSTEM: T1, B3GNT2 (Homo sapiens, UniProt Q9NY97)
T1 construct: The respective ORFs of candidate genes [CD274 (NM_014143), MCL1 (NM_021960), JUNB (NM_002229), and B3GNT2 (NM_006577)] were synthesized; expressed in transfected cells; host or cells: A375 melanoma cells (lentiviral ORF overexpression)
T1 sequence (Q9NY97 1-397): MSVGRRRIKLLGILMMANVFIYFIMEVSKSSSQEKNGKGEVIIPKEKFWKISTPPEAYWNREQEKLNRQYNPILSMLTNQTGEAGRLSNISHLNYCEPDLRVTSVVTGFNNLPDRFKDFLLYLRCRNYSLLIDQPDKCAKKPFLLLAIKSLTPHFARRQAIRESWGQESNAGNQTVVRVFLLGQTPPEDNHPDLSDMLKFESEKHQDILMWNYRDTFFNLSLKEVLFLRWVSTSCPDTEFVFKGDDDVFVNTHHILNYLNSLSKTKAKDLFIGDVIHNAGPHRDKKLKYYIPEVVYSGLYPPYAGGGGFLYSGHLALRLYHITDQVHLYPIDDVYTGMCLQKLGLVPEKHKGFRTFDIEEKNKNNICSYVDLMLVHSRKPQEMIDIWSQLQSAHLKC
ASSAY_NOTES: Co-IP of FLAG-tagged B3GNT2 followed by mass spectrometry
Format: cell-based
EXPERIMENTAL_CONTEXT: Co-IP with FLAG antibody, N-terminally FLAG-tagged B3GNT2; mass spectrometry count, unit not given
VALUE_KIND: N-term FLAG

>  <MOLECULE>
MYL9 (protein) SSKRAKAKTTKKRPQRATSNVFAMFDQSQIQEFKEAFNMIDQNRDGFIDKEDLHDMLASLGKNPTDEYLEGMMSEAPGPINFTMFLTMFGEKLNGTDPEDVIRNAFACFDEEASGFIHEDHLRELLTTMGDRFTDEEVDEMYREAPIDKKGNFNYVEFTRILKHGAKDKDD

>  <TEST_VALUE>
3

$$$$
>  <MOLECULE>
SLC25A22 (protein) MADKQISLPAKLINGGIAGLIGVTCVFPIDLAKTRLQNQQNGQRVYTSMSDCLIKTVRSEGYFGMYRGAAVNLTLVTPEKAIKLAANDFFRHQLSKDGQKLTLLKEMLAGCGAGTCQVIVTTPMEMLKIQLQDAGRIAAQRKILAAQGQLSAQGGAQPSVEAPAAPRPTATQLTRDLLRSRGIAGLYKGLGATLLRDVPFSVVYFPLFANLNQLGRPASEEKSPFYVSFLAGCVAGSAAAVAVNPCDVVKTRLQSLQRGVNEDTYSGILDCARKILRHEGPSAFLKGAYCRALVIAPLFGIAQVVYFLGIAESLLGLLQDPQA

>  <TEST_VALUE>
0

$$$$
>  <MOLECULE>
DSTN (protein) ASGVQVADEVCRIFYDMKVRKCSTPEEIKKRKKAVIFCLSADKKCIIVEEGKEILVGDVGVTITDPFKHFVGMLPEKDCRYALYDASFETKESRKEELMFFLWAPELAPLKSKMIYASSKDAIKKKFQGIKHECQANGPEDLNRACIAEKLGGSLIVAFEGCPV

>  <TEST_VALUE>
0

$$$$
>  <MOLECULE>
SLC25A6 (protein) MTEQAISFAKDFLAGGIAAAISKTAVAPIERVKLLLQVQHASKQIAADKQYKGIVDCIVRIPKEQGVLSFWRGNLANVIRYFPTQALNFAFKDKYKQIFLGGVDKHTQFWRYFAGNLASGGAAGATSLCFVYPLDFARTRLAADVGKSGTEREFRGLGDCLVKITKSDGIRGLYQGFSVSVQGIIIYRAAYFGVYDTAKGMLPDPKNTHIVVSWMIAQTVTAVAGVVSYPFDTVRRRMMMQSGRKGADIMYTGTVDCWRKIFRDEGGKAFFKGAWSNVLRGMGGAFVLVLYDELKKVI

>  <TEST_VALUE>
15

$$$$
